B1: OR4K15 (parent)
chain: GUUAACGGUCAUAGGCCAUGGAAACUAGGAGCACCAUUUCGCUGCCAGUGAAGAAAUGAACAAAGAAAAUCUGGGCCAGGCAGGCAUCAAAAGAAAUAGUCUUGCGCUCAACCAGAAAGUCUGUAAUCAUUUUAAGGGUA

Variants of: B1
test.method.notes: self-cleavage, relative activity (ratio to wild type); higher = more cleavage; in vitro, sequencing; the parent is a self-cleaving ribozyme
Give satisfied when the value for self-cleavage is at least 1. Give not satisfied when it is less.

Ask: Can A66G U97A be said to have self-cleavage at or above 1?
Result: satisfied

Ask: Can A55U A56C be said to have self-cleavage at or above 1?
Result: satisfied

This collection of values is drawn from the RNAGym collection of RNA variant scans (doi:10.7554/elife.90254).
